- systemName: AMPA type receptors
- testMethodNotes: 3H-AMPA Binding (Test 1)
- recordedConditions: displacement of 50% of the specific binding of 3H-AMPA (5 nM); rat cerebral cortical membrane homogenate, 0° C., 30 min, pH 7.1
reportedProperty: pIC50
On this scale, pIC50 is minus log10 of a concentration expressed in M (mol/L).

Qu. Can you look up the measured pIC50 of Cc1cn(-c2cc3c(cc2C(F)(F)F)[nH]c(=O)c2nnc(CP(=O)(O)O)n23)c(-c2ccccc2)n1 for me?
Ans. 6.41
